# System: L-6 cells
# assay info: In vitro cytotoxicity with L-6 cells
# Assay type: cell-based, rat
# assay context: rat skeletal myoblasts; average of four determinations; read-out: Cytotox. L-6 Cells IC50
observable: pIC50
Would you please state pIC50, meaning minus log10 of the concentration in mol/L, as a bare number?

Req: I have this compound here, COc1cc([C@@H]2c3cc4c(cc3[C@H](O)[C@H]3COC(=O)[C@H]23)OCO4)cc(OC)c1OC [POD, podophyllotoxin, reference compound] , and I need its recorded pIC50.
Resp: 7.92

* * *

# assay info: In vitro cytotoxicity with L-6 cells
# Format: cell-based, rat
# assay context: rat
Measured IC50 at 72 h of individual entries
Write the value in µM as a bare number.

CC(C)(C)n1nnnc1CN(CCN1CC2[C@H](c3ccccc3)CC(N3CCCCC3)(C[C@H]2c2ccccc2)C1)Cc1nnnn1C(C)(C)C (racemic) [Compound 15]
4.17
NCCN1CCC2(N3CCCCC3)C[C@H](c3ccccc3)C1[C@@H](c1ccccc1)C2 (racemic) [Compound 7]
16.8
NCCN1CCC2(N3CCCC3)C[C@H](c3ccccc3)C1[C@@H](c1ccccc1)C2 (racemic) [Compound 8]
25.8
CC(C)(C)n1nnnc1C(NCCN1CC2C(c3ccccc3)CC(N3CCCCC3)(CC2c2ccccc2)C1)c1ccccc1 (racemic) [Compound 12B]
2.56
O=S(=O)(c1ccc(Cl)cc1)N1CCC2(N3CCCC3)C[C@H](c3ccccc3)C1[C@@H](c1ccccc1)C2 (racemic) [Compound 18]
6.29

# context switch: different molecule, same IC50 at 72 h
Req: I have this molecule here, CN(C)C12CCN(CCN)C([C@@H](c3ccccc3)C1)[C@@H](c1ccccc1)C2 (racemic) [Compound 6] , and I need its recorded IC50 at 72 h.
Resp: 21.5
